For each entry below, report its GI50 value.
target: EGFR Exon 20 INSNPH Ba/F3 (Homo sapiens, UniProt P00533, DUP771-773, cells depend on it); assay: EGFR Exon 20 INSNPH Ba/F3 CellTiter-Glo; assay type: cell-based; settings: CellTiter-Glo, 72 h, read-out: EGFR Exon 20 INSNPH Ba/F3 CTG IC50
Sequence (P00533 with tags, fused parts or gaps DUP771-773): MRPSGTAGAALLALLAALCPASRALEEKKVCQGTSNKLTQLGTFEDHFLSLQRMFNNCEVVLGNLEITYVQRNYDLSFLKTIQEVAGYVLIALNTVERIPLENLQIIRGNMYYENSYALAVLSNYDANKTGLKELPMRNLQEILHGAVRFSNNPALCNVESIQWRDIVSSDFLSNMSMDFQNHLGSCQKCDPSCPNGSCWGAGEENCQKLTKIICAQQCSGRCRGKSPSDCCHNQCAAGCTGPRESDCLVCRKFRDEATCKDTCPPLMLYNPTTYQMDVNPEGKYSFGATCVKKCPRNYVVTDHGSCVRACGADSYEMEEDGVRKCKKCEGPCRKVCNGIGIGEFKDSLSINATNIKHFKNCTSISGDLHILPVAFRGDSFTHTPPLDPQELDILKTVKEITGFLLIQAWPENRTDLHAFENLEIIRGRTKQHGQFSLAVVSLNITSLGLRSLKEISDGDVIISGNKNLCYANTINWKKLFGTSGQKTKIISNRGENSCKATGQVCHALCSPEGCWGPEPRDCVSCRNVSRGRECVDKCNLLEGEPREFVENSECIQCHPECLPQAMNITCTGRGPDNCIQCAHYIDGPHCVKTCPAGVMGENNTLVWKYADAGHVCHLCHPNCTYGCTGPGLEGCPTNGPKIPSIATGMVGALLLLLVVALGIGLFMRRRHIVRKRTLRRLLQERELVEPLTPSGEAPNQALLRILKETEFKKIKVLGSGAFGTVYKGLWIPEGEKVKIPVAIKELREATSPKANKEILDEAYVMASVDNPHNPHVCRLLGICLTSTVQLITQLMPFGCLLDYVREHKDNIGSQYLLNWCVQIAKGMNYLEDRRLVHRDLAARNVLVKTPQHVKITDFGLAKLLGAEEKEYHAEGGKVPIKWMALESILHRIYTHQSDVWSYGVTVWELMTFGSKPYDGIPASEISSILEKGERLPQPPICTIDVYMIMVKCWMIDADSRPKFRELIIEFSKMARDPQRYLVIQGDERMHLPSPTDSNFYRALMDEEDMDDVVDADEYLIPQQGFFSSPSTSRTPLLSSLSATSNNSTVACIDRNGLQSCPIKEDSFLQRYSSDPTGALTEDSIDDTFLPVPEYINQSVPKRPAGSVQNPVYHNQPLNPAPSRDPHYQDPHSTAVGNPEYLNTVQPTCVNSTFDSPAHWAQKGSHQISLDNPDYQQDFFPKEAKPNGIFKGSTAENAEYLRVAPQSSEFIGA

compound: C=CC(=O)Nc1cc(-c2c(-c3ccc(N4CCN(C)CC4)cc3)[nH]c3ncc(C(=O)NCCc4ccncc4)cc23)ccc1C
tested on: EGFR Exon 20 INSNPH Ba/F3 (Homo sapiens, UniProt P00533, DUP771-773, cells depend on it)
GI50: 1000 to 10000 nM

Provide GI50 for all items below, preserving their order.
1. C=CC(=O)N1CCc2ccc(-c3c(-c4ccc(N5CCN(C)CC5)cc4)[nH]c4nccc(Cl)c34)cc21
2. C=CC(=O)Nc1cc(-c2c(-c3ccc(N4CCN(C)CC4)cc3)[nH]c3ncc(C(=O)NCc4ccncc4)cc23)ccc1C
3. C=CC(=O)Nc1cc(-c2c(-c3ccc(C4CCN(C)CC4)cc3)[nH]c3nccc(Cl)c23)cc(C)c1C
4. C=CC(=O)Nc1cc(-c2c(-c3ccc(N4CCN(C)CC4)cc3)[nH]c3ncc(C(=O)OC4CCCCC4)cc23)ccc1C

1: 100 to 500 nM; 2: 1000 to 10000 nM; 3: 100 to 500 nM; 4: 500 to 1000 nM

Provide GI50 for all items below, preserving their order.
1. C=CC(=O)Nc1cc(-c2c(-c3ccc(N4CCN(C)CC4)cc3)[nH]c3ncc(C(=O)NCc4nncn4C)cc23)ccc1C
2. C=CC(=O)Nc1cc(-c2c(-c3cccc(C(=O)N4CCOCC4)c3)[nH]c3nccc(Cl)c23)ccc1C
3. C=CC(=O)Nc1cc(-c2c(-c3cccc(OCCCN4CCN(CC)CC4)c3)[nH]c3nccc(Cl)c23)ccc1C
4. C=CC(=O)N1CCc2ccc(-c3c(-c4ccc(OCCN5CCCC5)cc4)[nH]c4nccc(OC)c34)cc21

1: > 10000 nM; 2: 1000 to 10000 nM; 3: 100 to 500 nM; 4: 500 to 1000 nM

Provide GI50 for all items below, preserving their order.
1. C=CC(=O)N1CCc2ccc(-c3c(-c4ccc(CN5CCOCC5)cc4)[nH]c4nccc(Cl)c34)cc21
2. C=CC(=O)Nc1cc(-c2c(-c3ccc(N4CCN(C)CC4)cc3)[nH]c3ncc(C(=O)NCc4cccc(NC(C)=O)c4)cc23)ccc1C
3. C=CC(=O)Nc1cc(-c2c(-c3cccc(CN4CCN(C)CC4)c3)[nH]c3ncc(C(=O)OC(C)C)cc23)ccc1C

1. 1000 to 10000 nM
2. > 10000 nM
3. 500 to 1000 nM

Provide GI50 for all items below, preserving their order.
1. C=CC(=O)Nc1cc(-c2c(-c3ccc(N4CCN(C)CC4)cc3)[nH]c3ncc(C(=O)OC)cc23)ccc1C [Example 134, 2,2,2-trifluoroacetate]
2. C=CS(=O)(=O)Nc1cc(-c2c(-c3ccc(N4CCN(C)CC4)cc3)[nH]c3nccc(Cl)c23)ccc1C [Example 145, 2,2,2-trifluoroacetate]

1: 100 to 500 nM; 2: 500 to 1000 nM

Provide GI50 for all items below, preserving their order.
1. C=CC(=O)Nc1cc(-c2c(-c3ccc(OCCN(C)C)cc3)[nH]c3ncc(C(=O)OC(C)C)cc23)cc(F)c1C
2. C=CC(=O)Nc1cc(-c2c(-c3cccc(C(=O)NCCCN4CCCC4)c3)[nH]c3nccc(Cl)c23)ccc1C

100 to 500 nM
1000 to 10000 nM

Provide GI50 for all items below, preserving their order.
1. C=CC(=O)Nc1cc(-c2c(-c3ccc(N4CCN(C)CC4)cc3)[nH]c3nccc(Cl)c23)ccc1C
2. C=CC(=O)Nc1cc(-c2c(-c3cccc(C(=O)N4CCN(C)CC4)c3)[nH]c3nccc(Cl)c23)ccc1C [Example 44, 2,2,2-trifluoroacetate]
3. C=CC(=O)Nc1cc(-c2c(-c3ccc(OCCO)cc3)[nH]c3ncc(C(=O)OC(C)C)cc23)ccc1C
4. C=CC(=O)Nc1cc(-c2c(-c3ccc(N4CCN(C(C)C)CC4)cc3)[nH]c3nccc(Cl)c23)ccc1C
5. C=CC(=O)Nc1cc(-c2c(-c3ccc(N4CCN(C)CC4)cc3)[nH]c3ncc(C#N)cc23)ccc1C [Example 97, 2,2,2-trifluoroacetate]
6. C=CC(=O)Nc1cc(-c2c(-c3ccc(N4CCN(C)CC4)c(F)c3)[nH]c3ncc(C(=O)OC(C)C)cc23)ccc1C
7. C=CC(=O)N1CCc2ccc(-c3c(-c4ccc(OCCN5CCCC5)cc4)[nH]c4nccc(OCC)c34)cc21
8. C=CC(=O)Nc1cc(-c2c(-c3ccc(N4CCN(C)CC4)cc3)[nH]c3ncc(C(=O)NCCc4ccc(F)cc4)cc23)ccc1C

1. ≤ 100 nM
2. 1000 to 10000 nM
3. 500 to 1000 nM
4. ≤ 100 nM
5. ≤ 100 nM
6. 100 to 500 nM
7. 100 to 500 nM
8. 500 to 1000 nM

Provide GI50 for all items below, preserving their order.
1. C=CC(=O)N1CCc2ccc(-c3c(-c4ccc(N5CCN(C)CC5)cc4)[nH]c4ncc(C(=O)OC(C)C)cc34)cc21
2. C=CC(=O)Nc1cc(-c2c(-c3ccc(N4CCN(C)CC4)cc3)[nH]c3ncc(C(=O)NC4CCCCC4)cc23)ccc1C
3. C=CC(=O)Nc1cc(-c2c(-c3ccc(N4CCN(C)CC4)cc3)[nH]c3ncc(C(=O)NCc4nc5ccccc5[nH]4)cc23)ccc1C

1. 500 to 1000 nM
2. 100 to 500 nM
3. 1000 to 10000 nM

---

target: EGFR Exon 20 INSNPH Ba/F3 (Homo sapiens, UniProt P00533, DUP771-773, cells depend on it); test: EGFR Exon 20 INSNPH Ba/F3 CellTiter-Glo; assay type: cell-based; details: CellTiter-Glo, 72 h, read-out: EGFR Exon 20 INSNPH Ba/F3 CTG IC50
For each entry below, report its GI50 value.

Worked examples, 5 compounds total:
compound: C=CC(=O)N1CCOc2ccc(-c3c(-c4ccc(N(C)CCN(C)C)cc4)[nH]c4nccc(Cl)c34)cc21
GI50: 100 to 500 nM
//
compound: C=CC(=O)Nc1cc(-c2c(-c3ccc(N4CCN(CC)CC4)cc3)[nH]c3ncc(C(=O)OC(C)C)cc23)ccc1C
GI50: 100 to 500 nM
//
compound: C=CC(=O)Nc1cc(-c2c(-c3ccc(N4CCN(C)CC4)cc3)[nH]c3ncc(CC(=O)N(C)C)cc23)ccc1C [Example 194, 2,2,2-trifluoroacetate]
GI50: 1000 to 10000 nM
//
compound: C=CC(=O)Nc1cc(-c2c(-c3ccc(N4CCN(C)CC4)cc3)[nH]c3ncc(NC(=O)C(C)C)cc23)ccc1C [Example 200, 2,2,2-trifluoroacetate]
GI50: 100 to 500 nM
//
compound: C=CC(=O)Nc1cc(-c2c(-c3ccc(N4CCN(C)CC4)cc3)[nH]c3ncc(C(=O)NC(C)C)cc23)ccc1C
GI50: 100 to 500 nM

Here's the next entry for you.
Give the value of GI50 reported for the following: C=CC(=O)Nc1cc(-c2c(-c3cccc(OCCN4CCCC4)c3)[nH]c3ncc(C(=O)OC(C)C)cc23)ccc1C 100 to 500 nM

---

target: EGFR Exon 20 INSNPH Ba/F3 (Homo sapiens, UniProt P00533, DUP771-773, cells depend on it); experiment: EGFR Exon 20 INSNPH Ba/F3 CellTiter-Glo; assay type: cell-based; settings: CellTiter-Glo, 72 h, read-out: EGFR Exon 20 INSNPH Ba/F3 CTG IC50
measurement kind: GI50

Worked examples, 5 compounds total:
compound: C=CC(=O)Nc1cc(-c2c(-c3cccc(OCCCN(C)C)c3)[nH]c3nccc(Cl)c23)ccc1C [Example 20]
GI50: 500 to 1000 nM
--
compound: C=CC(=O)N1CCOc2ccc(-c3c(-c4ccc(CN(C)C)cc4)[nH]c4nccc(Cl)c34)cc21 [Example 102]
GI50: 100 to 500 nM
--
compound: C=CC(=O)N1CCCc2ccc(-c3c(-c4cccc(CN5CCN(C)CC5)c4)[nH]c4nccc(Cl)c34)cc21 [Example 95]
GI50: 1000 to 10000 nM
--
compound: C=CC(=O)Nc1cc(-c2c(-c3ccc(CN(C)C)cc3)[nH]c3ncc(C(=O)OC(C)C)cc23)ccc1C [Example 151]
GI50: 100 to 500 nM
--
compound: C=CC(=O)N1CCOc2ccc(-c3c(-c4ccc(OCCN5CCCC5)cc4)[nH]c4nccc(Cl)c34)cc21 [Example 101]
GI50: 100 to 500 nM

Provide GI50 for all items below, preserving their order.
1. Cc1ccc(-c2c(-c3ccc(N4CCN(C)CC4)cc3)[nH]c3nccc(Cl)c23)cc1NC(=O)CCl [Example 146, 2,2,2-trifluoroacetate]
2. C=CC(=O)N1CCOc2ccc(-c3c(-c4ccc(N5CCN(C(C)C)CC5)cc4)[nH]c4nccc(Cl)c34)cc21 [Example 85]

100 to 500 nM
100 to 500 nM

Provide GI50 for all items below, preserving their order.
1. C=CC(=O)Nc1cc(-c2c(-c3ccc(N4CCN(C)CC4)cc3)[nH]c3ncc(C(=O)OC(C)C)cc23)cc(F)c1C [Example 165]
2. C=CC(=O)Nc1cc(-c2c(-c3ccc(N4CCN(C)CC4)cc3)[nH]c3ncc(CC(=O)O)cc23)ccc1C [Example 189, 2,2,2-trifluoroacetate]

1: 100 to 500 nM; 2: > 10000 nM

Provide GI50 for all items below, preserving their order.
1. C=CC(=O)Nc1cc(-c2c(-c3ccc(N4CCN(C)CC4)cc3)[nH]c3ncc(C(=O)OC4COC4)cc23)ccc1C [Example 141]
2. C=CC(=O)Nc1cc(-c2c(-c3ccc(N4CCN(C)CC4)cc3)[nH]c3ncc(C(=O)OC4CCCC4)cc23)ccc1C [Example 139]
3. C=CC(=O)Nc1cc(-c2c(-c3ccc(NS(C)(=O)=O)cc3)[nH]c3nccc(Cl)c23)ccc1C [Example 12]
4. C=CC(=O)N1CCCc2ccc(-c3c(-c4ccc(OCCN(C)C)cc4)[nH]c4nccc(Cl)c34)cc21 [Example 92]
5. C=CC(=O)N1CCc2ccc(-c3c(-c4ccc(CN(C)C)cc4)[nH]c4nccc(Cl)c34)cc21 [Example 61]

["500 to 1000 nM", "500 to 1000 nM", "100 to 500 nM", "1000 to 10000 nM", "100 to 500 nM"]

Provide GI50 for all items below, preserving their order.
1. C=CC(=O)Nc1cc(-c2c(-c3ccc(N4CCN(C)CC4)cc3)[nH]c3ncc(C(=O)OC(C)C)cc23)c(C)cc1C [Example 202]
2. C=CC(=O)Nc1cc(-c2c(-c3ccc(N4CCN(C)CC4)cc3)[nH]c3ncc(C(=O)NCc4ccc(NC(C)=O)cc4)cc23)ccc1C [Example 132]

["1000 to 10000 nM", "> 10000 nM"]
